- Tested on: OVCAR8
- Method summary: drug sensitivity score (DSS2) on cancer cell count; higher = more sensitive; extreme values may be limits of the assay
- Condition context: co-cultured fibroblast: BJHTERT; 72 h
Measurement name: drug sensitivity score (DSS)
Numbers only, in DSS.

Compound	Measured target	Unit of measurement	drug sensitivity score
CO[C@H]1C[C@@H]2CC[C@@H](C)[C@@](O)(O2)C(=O)C(=O)N2CCCC[C@H]2C(=O)O[C@H]([C@H](C)C[C@@H]2CC[C@@H](OC(=O)C(C)(CO)CO)[C@H](OC)C2)CC(=O)[C@H](C)/C=C(\C)[C@@H](O)[C@@H](OC)C(=O)[C@H](C)C[C@H](C)/C=C/C=C/C=C/1C	OVCAR8	DSS	8.8
Nc1nc(OCc2cc(Br)cs2)c2[nH]cnc2n1	OVCAR8	DSS	0
CCn1c(-c2nonc2N)nc2cnc(Oc3cccc(NC(=O)c4ccc(OCCN5CCOCC5)cc4)c3)cc21	OVCAR8	DSS	10.9
COCCNCc1ccc(-c2cc3nccc(Oc4ccc(NC(=O)C5(C(=O)Nc6ccc(F)cc6)CC5)cc4F)c3s2)nc1	OVCAR8	DSS	0
O=C(NC1CCNCC1)c1n[nH]cc1NC(=O)c1c(Cl)cccc1Cl	OVCAR8	DSS	21.6
N#CC(c1ccnc(OCc2ccc(CN3CCOCC3)cc2)n1)c1nc2ccccc2s1 (stereo not given)	OVCAR8	DSS	0
Cc1cc(Nc2nc(N[C@@H](C)c3ncc(F)cn3)ncc2Cl)[nH]n1	OVCAR8	DSS	0.4
CNC(=O)c1cc(Oc2ccc(NC(=O)Nc3ccc(Cl)c(C(F)(F)F)c3)cc2)ccn1	OVCAR8	DSS	0

# per-item lookup of drug sensitivity score; items listed below
1. CC(=O)[C@]1(O)Cc2c(O)c3c(c(O)c2[C@@H](O[C@H]2C[C@H](N)[C@H](O)[C@H](C)O2)C1)C(=O)c1ccccc1C3=O
2. CN1CCN(c2nc(C3=C(c4c[nH]c5ccccc45)C(=O)NC3=O)c3ccccc3n2)CC1
3. COc1cc2c(NC3CCN(C(C)C)CC3)nc(N3CCC(F)(F)CC3)nc2cc1OCCCN1CCCC1
4. CCCS(=O)(=O)Nc1ccc(F)c(C(=O)c2c[nH]c3ncc(-c4ccc(Cl)cc4)cc23)c1F
5. CN(C)CC#Cc1ccc(OCCCc2sc(N3CCc4cccc(C(=O)Nc5nc6ccccc6s5)c4C3)nc2C(=O)O)c(F)c1
6. CNc1nc(-c2ccc3c(N)n[nH]c3c2)cc(N2C[C@@H](C(=O)NC3CCCCC3)CC[C@H]2C)n1
7. O=c1[nH]c(=O)n([C@H]2C[C@H](O)[C@@H](CO)O2)cc1F

[A]
17.6
0.2
8
0
4.3
1.3
18.7

Where do these numbers come from? They come from the supplement of paper PMC12420376.
